Please provide measured GI50 for the entries that follow.
Test system: OVCAR-5
assay.procedure: NCI tumour cell line growth inhibition, 48 h
The source made the active and inactive calls. Rule as the data show it: active = GI50 up to about 1.1 µM and inactive = higher. Where a SMILES comes first, the peptide text is derived from it. The star is where a group is joined. Boc = CC(C)(C)OC(=O)*; OSu = O=C1CCC(=O)N1O*

Q: Need GI50, item CCOC(=O)C(NC(=O)c1ccccc1)(Nc1ccc(S(=O)(=O)Nc2cc(C)on2)cc1)C(F)(F)F (stereo not drawn)
Ans: > 100 µM (inactive)

Q: Entry `CCNC(=O)C#CC(=O)NCC` has what GI50?
Ans: > 100 µM (inactive)

Q: Can you share its GI50? I mean this molecule: `Cc1ccc2nc(C(=O)O)c(=O)[nH]c2c1`
Ans: > 100 µM (inactive)

Q: Request the reported GI50 associated with CC(C)(C)OC(=O)NC(Cc1ccc(O)cc1)C(=O)NC(CCCCN)C(=O)NC(Cc1ccc(O)cc1)C(=O)NC(CCCCN)C(=O)ON1C(=O)CCC1=O (stereo not drawn) (Boc-YKYK-OSu; configuration not given here)
Ans: > 100 µM (inactive)

Q: What value of GI50 has been recorded for this entry: CCN(CC)CCN(C)c1ccc(CO)c2c1c(=O)c1ccccc1[s+]2[O-] (stereo not drawn)
Ans: 11.4 µM (inactive)

Q: GI50 for CCCCCCCCCCCCCCCCCCNc1nc(=O)n(C2CC(O)C(COP(=O)(O)O)O2)cc1F (stereo not drawn) ?
Ans: > 100 µM (inactive)

Q: Recorded GI50 of CC(C)=CC1C[C@H](C2CC=C3C2(C)CCC2[C@@]3(C)C(=O)CC3[C@]2(C)C=CC(=O)[C@]3(C)CO)CO1 (stereo partly drawn) , please.
Ans: 21 µM (inactive)

Q: For the molecule `O=C(C=P(c1ccccc1)(c1ccccc1)c1ccccc1)c1ccc(-c2cccc([N+](=O)[O-])c2)cc1` , what GI50 is on record?
Ans: 3.61 µM (inactive)

From: ChEMBL document CHEMBL1201862
